# TESTED ON: SARS-CoV-2 NSP3 Mac1 (Severe acute respiratory syndrome coronavirus 2, UniProt P0DTD1)
# PROTOCOL TEXT: biochemical
# Format: binding
# TEST CONDITIONS: HTRF ADPr-conjugated peptide displacement; read-out: IC50
Mark fulfilled only for IC50 values smaller than 30 µM; exact matches and larger values are not fulfilled.

COMPOUND: O=C(NC1c2cccc(O)c2CC1C(=O)O)c1ccc2[nH]cnc2c1 (stereo not drawn)
ASSIGNED CATEGORY: fulfilled
--
COMPOUND: O=C(O)C(O)C1CCCN(c2ncnc3[nH]c4cc(F)ccc4c23)C1 (stereo not drawn)
ASSIGNED CATEGORY: not fulfilled
--
COMPOUND: O=C(O)[C@H]1[C@@H]2CN(c3ncnc4[nH]c5cc(F)ccc5c34)CC[C@@H]21
ASSIGNED CATEGORY: not fulfilled

# input Is the reported IC50 for Fc1ccc2c(c1)[nH]c1ncnc(N3CCOC(c4nnn[nH]4)C3)c12 (stereo not drawn) strictly below 30 µM?
# output fulfilled

# input Is it true that IC50 reported for Nc1nc(N2CC3(CCC3)C(F)(C(=O)O)C2)c2c(n1)[nH]c1cc(F)ccc12 (stereo not drawn) is less than 30 µM?
# output fulfilled

# input Given O=C(O)C1(F)CN(c2ncnc3[nH]c4cc(F)ccc4c23)CC12COC2 (stereo not drawn) , is recorded IC50 strictly lower than 30 µM?
# output fulfilled

# input Regarding O=C(NC1c2cccc(O)c2CC1C(=O)O)c1ccc2[nH]ccc2c1 (stereo not drawn) , kindly confirm whether its IC50 is beneath 30 µM.
# output fulfilled

# input Lab log: compare recorded IC50 with 30 µM; is it strictly lower for `CCC(=O)Nc1nc(C)c(S(=O)(=O)Nc2cccc(C#N)c2)s1` ?
# output not fulfilled

# input Hello, I'm reviewing records and need to know if IC50 of `Cn1ncc2ncnc(NS(=O)(=O)Cc3ccc(CC#N)cc3)c21` is below 30 µM. Could you check?
# output not fulfilled

###

# TESTED ON: SARS-CoV-2 NSP3 Mac1 (Severe acute respiratory syndrome coronavirus 2, UniProt P0DTD1)
# Format: binding
# TEST CONDITIONS: PanDDA event map, 1 minus background density correction; crystal soaking of Mac1
MEASURED QUANTITY: 1-BDC (PanDDA)
Numbers only.

Example entries begin here.
MOLECULE: O=C(NC1c2cccc(O)c2CC1C(=O)O)c1ccc2[nH]cnc2c1 (centres unmarked) [Z8539_2001]
OBSERVED VALUE: 0.23
//
MOLECULE: O=C(O)[C@H]1CCCC[C@H]1Nc1ncnc2[nH]c3cc(F)ccc3c12 [LRH-0021]
OBSERVED VALUE: 0.12

Give 1-BDC (PanDDA) for each listed item.
1. O=C(O)C1(F)CN(c2cc(Nc3ccccc3)ncn2)CC12CCC2 (centres unmarked) [LL1_0025]
2. O=C(Nc1ccc(C(=O)N[C@@H]2c3cccc(O)c3C[C@H]2C(=O)O)cc1)NC1CC1 [Compound E2160]
3. O=C(O)CC1CC(CNC(=O)c2cncc3sccc23)C1 (centres unmarked) [Compound Z1558]

# output
[0.14, 0.1, 0.24]

###

# TESTED ON: SARS-CoV-2 NSP3 Mac1 (Severe acute respiratory syndrome coronavirus 2, UniProt P0DTD1)
# Format: binding
# TEST CONDITIONS: overall hit flag: binding in crystallographic soaking or the HTRF-based binding assay
MEASURED QUANTITY: HIT*

Before answering, review these 4 worked examples.
COMPOUND: CCc1c[nH]c2ncnc(N3CCCC(S(C)(=O)=O)C3)c12 (centres unmarked)
HIT*: Y
//
COMPOUND: O=C(NC1c2ccccc2CC1C(=O)O)c1ccc(NC(=O)C2CC2)cc1 (centres unmarked)
HIT*: Y
//
COMPOUND: O=c1[nH]nc(C2CCCN(c3ncnc4[nH]ccc34)C2)o1 (centres unmarked)
HIT*: Y
//
COMPOUND: O=C1CCCN1CCSc1ncnc2[nH]cnc12
HIT*: Y

API: the following record is the query input.
# input Record lookup: for SARS-CoV-2 NSP3 Mac1 (Severe acute respiratory syndrome coronavirus 2, UniProt P0DTD1), what HIT* belongs to `C[C@@H]1CN(c2ncnc3[nH]c4ccccc4c23)C[C@@H](CO)O1` ?
# output Y
